- assay target: T1, ZFP SBS#606 (synthetic, UniProt P08047)
- T1 chain: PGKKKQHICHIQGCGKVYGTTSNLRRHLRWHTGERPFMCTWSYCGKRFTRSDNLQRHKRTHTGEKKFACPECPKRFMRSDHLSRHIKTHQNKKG
- experiment description: EMSA
- condition set: tags: MBP fusion
pKd: −log10 of the molar value.

[
  {
    "binder": "GGGGAGGATC (dsDNA) DNA 1: GGGGAGGATC DNA 2: GATCCTCCCC",
    "pKd": 9.70
  }
]
